Origin of the recorded values: PubChem BioAssay AID1996

Experimental parameters: buffer; pH 7.4; 200.0 µM
Recorded measurements of log10 solubility kinetic, one per entry
Result type: log10 solubility kinetic (log10 of the value in µg/mL)

Molecule | log10 solubility kinetic
O=C(O)CSCC(=O)N(c1ccccc1)c1ccccc1 | 1.63
O/N=C\c1ccccc1Oc1ccc(F)cc1 | 1.51
COc1cccc(-n2c(-c3ccccc3)c[nH]c2=S)c1 | 0.89
CCOc1ccc(N(CC(=O)N2CCCCCC2)S(C)(=O)=O)cc1 | 1.49
Cl.Oc1cccc(Nc2ncnc3c2oc2ccccc23)c1 | 0.36
CCn1c(=O)n(CC)c2cc(NC(=O)c3ccccc3Cl)ccc21 | 1.70
CC(=O)c1sc(NC(=O)c2ccc(Cl)cc2)nc1C | -0.30
Cc1ccc(C)c(OCCN2CCOCC2)c1 | 1.40
CCN1CCN(c2ncnc3sc4c(c23)CCC(C)C4)CC1 (stereo not given) | 1.42
O=C(CNC(=O)c1cccs1)OCc1ccc(Cl)cc1 | 1.61
CC1CCCN(CC(O)COCc2ccc3c(c2)OCO3)C1.Cl (stereo not given) | 1.59
CC(C)Oc1cccc(NC(=O)c2cnccc2C(F)(F)F)c1 | 1.64
Cc1c(C(=O)N2CCCC(C(F)(F)F)C2)oc2ccccc12 (stereo not given) | 1.50
CCn1c(=O)c2ccccc2n(Cc2cccc(C)c2)c1=O | 1.30
CCN1CCN(c2ccc(NC(=O)c3ccco3)cc2Cl)CC1 | 1.66
